- target: recombinant human TFPI (tissue factor pathway inhibitor) (human, UniProt P10646 29-304)
- method_notes: cell-based or functional assay
measure_name: FXa assay OD, 20 nM Ab, 10 nM TFPI

clone 4206 (antibody, V domains shown) VH: EVQLVESGGGLVKPGGSLRLSCAASGFTFSSYAMNWVRQAPGKGLEWVSTITTGGSHTYYADSVEGRFTISRDNAKNSLYLQMDSLRAEDTAVYYCARQDGNFLMDYWGQGTLVTVSS VL: DVVMTQTPLSLPVTLGQPASISCKSSQSLLDVDGKTYLNWLQQRPGQSPKRLIYLVSKLDSGVPDRFTGSGSGTDFTLKISRVEAEDVGVYYCWQGTHLPFTFGQGTKVEIKR    0.314
clone 3203 (antibody, V domains shown) VH: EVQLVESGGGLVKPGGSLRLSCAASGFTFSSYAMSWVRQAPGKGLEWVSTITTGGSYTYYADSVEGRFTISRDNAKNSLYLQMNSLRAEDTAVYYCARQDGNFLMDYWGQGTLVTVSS VL: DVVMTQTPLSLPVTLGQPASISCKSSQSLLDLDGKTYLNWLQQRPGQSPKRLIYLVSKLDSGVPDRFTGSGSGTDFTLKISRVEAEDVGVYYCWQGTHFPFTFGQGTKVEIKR    0.552
clone 3241 (antibody, V domains shown, scFv on yeast at selection; human IgG4/kappa IgG as purified; also called No. 3241 antibody) VH: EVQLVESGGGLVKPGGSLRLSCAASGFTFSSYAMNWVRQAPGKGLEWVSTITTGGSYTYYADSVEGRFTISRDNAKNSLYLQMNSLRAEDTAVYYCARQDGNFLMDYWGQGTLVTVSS VL: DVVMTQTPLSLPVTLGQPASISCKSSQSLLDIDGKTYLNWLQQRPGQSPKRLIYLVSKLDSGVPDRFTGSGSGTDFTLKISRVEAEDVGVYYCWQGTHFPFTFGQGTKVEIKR    0.665
clone 4208 (antibody, V domains shown) VH: EVQLVESGGGLVKSGGSLRLSCAASGFTFSSYAMSWVRQAPGKGLEWVGTITTGGSYTYYADSVQGRFTISRDNAKNSLYLQMNSLRAEDTAVYYCARQDGNFLMDYWGQGTLVTVSS VL: DVVMTQTPLSLPVTLGQPASISCKSSQSLLDTDGKTYLNWLQQRPGQSPKRLIYLVSKLDSGVPDRFTGSGSGTDFTLKISRVEAEDVGVYYCWQGTHFPFTFGQGTKVEIKR    0.431
clone 1023 (antibody, V domains shown, scFv on yeast at selection; human IgG4/kappa IgG as purified) VH: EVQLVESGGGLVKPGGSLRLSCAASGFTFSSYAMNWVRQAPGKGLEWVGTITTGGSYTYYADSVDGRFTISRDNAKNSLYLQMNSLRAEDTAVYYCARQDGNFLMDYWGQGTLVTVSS VL: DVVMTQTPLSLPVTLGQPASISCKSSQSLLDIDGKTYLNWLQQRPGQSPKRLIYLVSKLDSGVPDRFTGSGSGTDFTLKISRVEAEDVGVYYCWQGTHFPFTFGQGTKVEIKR    0.745

// next item, FXa assay OD, 20 nM Ab, 10 nM TFPI requested
Incoming: Respond only with FXa assay OD, 20 nM Ab, 10 nM TFPI recorded for clone A67 (antibody, V domains shown) VH: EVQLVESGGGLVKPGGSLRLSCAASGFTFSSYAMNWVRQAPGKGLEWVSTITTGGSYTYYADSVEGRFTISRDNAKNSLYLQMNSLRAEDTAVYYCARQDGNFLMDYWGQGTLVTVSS VL: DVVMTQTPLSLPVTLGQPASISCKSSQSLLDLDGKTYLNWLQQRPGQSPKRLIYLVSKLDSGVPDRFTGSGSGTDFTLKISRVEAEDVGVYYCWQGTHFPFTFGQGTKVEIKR
Outgoing: 0.616
